Please go through the items and note down their Kd.
Subject of test: T1, CD52 peptide #741
T1 construct: also called CD52 peptide #741 chip
Protocol description: BIACORE (SPR), CD52 peptide #741 chip, preliminary constant; antibody after 2 weeks at 45C, pH 7.2 in PBS
Field format: number, assumed nM, no unit text.

[in] Recorded Kd for Ab20 (antibody, human IgG1, kappa, V domains shown) VH: EVQLVESGGGLVQPGGSLRLSCAASGFPFSNYWMNWVRQAPGKGLEWVGQIRLKSNNYATHYAESVKGRFTISRDDSKNSLYLQMNSLKTEDTAVYYCTPIDYWGQGTTVTVSS VL: DIVMTQTPLSLSVTPGQPASISCKSSQSLLYSNQKTYLNWVLQKPGQSPQRLIYLVSKLDSGVPDRFSGSGSGTDFTLKISRVEAEDVGVYYCVQGSHFHTFGQGTKLEIKR , please?
[out] 6.8

[in] Fill blank: measured Kd of the binder Ab11 (antibody, human IgG1, kappa, V domains shown) VH: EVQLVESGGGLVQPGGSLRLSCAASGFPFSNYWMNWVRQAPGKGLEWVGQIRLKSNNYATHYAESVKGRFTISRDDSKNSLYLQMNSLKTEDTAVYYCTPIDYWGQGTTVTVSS VL: DIVMTQTPLSLSVTPGQPASISCKSSQSLLYSNDKTYLNWVLQKPGQSPQRLIYLVSKLDSGVPDRFSGSGSGTDFTLKISRVEAEDVGVYYCVQGSHFHTFGQGTKLEIKR is ____.
[out] 16.5

[in] Entry Ab16 (antibody, human IgG1, kappa, V domains shown) VH: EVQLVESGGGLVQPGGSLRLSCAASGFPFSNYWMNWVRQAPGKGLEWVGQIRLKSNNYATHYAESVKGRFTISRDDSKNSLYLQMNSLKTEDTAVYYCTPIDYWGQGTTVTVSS VL: DIVMTQTPLSLSVTPGQPASISCKSSQSLLYSNKKTYLNWVLQKPGQSPQRLIYLVSKLDSGVPDRFSGSGSGTDFTLKISRVEAEDVGVYYCVQGSHFHTFGQGTKLEIKR has what Kd?
[out] 7.17
